Condition context: in n-hexanol, 313.15 K
Outcome measure: solubility (mole fraction)
// response body must contain only the number

The compound O=C(O)c1ccccc1O showed solubility (mole fraction) equal to 0.195

----------
Condition context: in n-hexanol, 308.15 K
Outcome measure: solubility (mole fraction)
// response body must contain only the number

The molecule O=C(O)c1ccccc1O showed solubility (mole fraction) equal to 0.182

----------
Condition context: in n-heptanol, 303.15 K
Outcome measure: solubility (mole fraction)
// response body must contain only the number

The compound O=C(O)c1ccccc1O showed solubility (mole fraction) equal to 0.171

----------
Condition context: in n-butanol, 318.15 K
Outcome measure: solubility (mole fraction)
// response body must contain only the number

The compound O=C(O)c1ccccc1O showed solubility (mole fraction) equal to 0.201
